Answer each item with its documented pIC50.
# system_tested: hLPAR1 (human lysophosphatidic acid receptor 1) (Homo sapiens)
# protocol_description: FLIPR intracellular calcium assay, hLPAR1 expressed in CHO-K1 cells
# condition_notes: antagonism of 1 μM LPA-induced calcium increase, CHO-K1 cells expressing hLPAR1; read-out: LPAR1 IC50
pIC50: −log10 of the molar value.

Request: Given the molecule CN(Cc1ccccc1)C(=O)OCc1c(-c2ccc(Oc3cc(Cl)ccc3C(=O)O)cc2)nnn1C , what is its reported pIC50?
Response: 5.00 to 6.52

Request: Given the molecule CN(C(=O)Cc1c(-c2ccc(O[C@H]3CCC[C@H](C(=O)O)C3)cc2)nnn1C)C1CCCC1 (racemic) , what is its reported pIC50?
Response: 6.52 to 7.30

Request: Given the molecule CN(Cc1ccccc1)C(=O)OCc1c(-c2ccc(O/C=C/C(=O)O)cc2)nnn1C , what is its reported pIC50?
Response: 6.52 to 7.30

Request: Given the molecule Cn1nnc(-c2ccc(O[C@H]3CCC[C@H](C(=O)O)C3)cc2)c1Cn1ccn(Cc2ccccc2)c1=O (racemic) , what is its reported pIC50?
Response: 5.00 to 6.52

* * *

Answer each item with its documented CC50 at 48 h.
# protocol_description: In vitro cytotoxicity assay in HepG2 cells, CCK-8 method
# Assay type: cell-based
# condition_notes: human, 48 h incubation

Request: Given the molecule CN(C(=O)OC1CCCC1)c1c(-c2ccc(O[C@H]3CCC[C@H](C(=O)O)C3)cc2)nnn1C (racemic) , what is its reported CC50 at 48 h?
Response: > 200 µM

Request: Given the molecule Cn1nnc(-c2ccc(O[C@H]3CCC[C@H](C(=O)O)C3)cc2)c1CN1CCN(Cc2ccccc2)C1=O (racemic) , what is its reported CC50 at 48 h?
Response: > 200 µM

Request: Given the molecule CN(Cc1ccccc1)C(=O)OCc1c(-c2ccc(O/C=C/C(=O)O)cc2)nnn1C , what is its reported CC50 at 48 h?
Response: > 200 µM

Request: Given the molecule CN(Cc1ccccc1)C(=O)NCc1c(-c2ccc(O[C@H]3CCC[C@H](C(=O)O)C3)cc2)nnn1C (racemic) , what is its reported CC50 at 48 h?
Response: > 200 µM

Request: Given the molecule Cn1nnc(-c2ccc(O[C@H]3CCC[C@H](C(=O)O)C3)cc2)c1CNC(=O)/C=C/c1ccccc1 (racemic) , what is its reported CC50 at 48 h?
Response: > 200 µM

Request: Given the molecule CN(C(=O)CCc1c(-c2ccc(O[C@H]3CCC[C@H](C(=O)O)C3)c(C(F)(F)F)n2)nnn1C)C1CCCC1 (racemic) , what is its reported CC50 at 48 h?
Response: > 200 µM

Request: Given the molecule Cn1nnc(-c2ccc(O[C@H]3CCC[C@H](C(=O)O)C3)cc2)c1C1CN(Cc2ccccc2)C(=O)O1 (some centres unmarked) , what is its reported CC50 at 48 h?
Response: > 200 µM

Request: Given the molecule CN(Cc1ccccc1)C(=O)OCc1cn(-c2ccc(O[C@H]3CCC[C@H](C(=O)O)C3)cc2)nn1 (racemic) , what is its reported CC50 at 48 h?
Response: > 200 µM

Request: Given the molecule CN(Cc1ccccc1)C(=O)/C=C/c1c(-c2ccc(O[C@H]3CCC[C@H](C(=O)O)C3)cc2)nnn1C (racemic) , what is its reported CC50 at 48 h?
Response: > 200 µM

Request: Given the molecule Cn1nnc(-c2ccc(O[C@H]3CCC[C@H](C(=O)O)C3)cc2)c1CNS(=O)(=O)c1ccccc1 (racemic) , what is its reported CC50 at 48 h?
Response: > 200 µM

Request: Given the molecule Cn1nnc(-c2ccc(O[C@H]3CCC[C@H](C(=O)O)C3)c(C(F)(F)F)n2)c1C1CN(C2CCCC2)C(=O)O1 (some centres unmarked) , what is its reported CC50 at 48 h?
Response: > 200 µM

Request: Given the molecule CN(Cc1ccccc1)C(=O)CCc1c(-c2ccc(O[C@H]3CCC[C@H](C(=O)O)C3)cc2)nnn1C (racemic) , what is its reported CC50 at 48 h?
Response: > 200 µM

Request: Given the molecule CN(Cc1ccccc1)C(=O)OCc1c(-c2ccc(O[C@H]3CCC[C@H](C(=O)O)C3)o2)nnn1C (racemic) , what is its reported CC50 at 48 h?
Response: > 200 µM

Request: Given the molecule CN(C(=O)NCc1c(-c2ccc(O[C@H]3CCC[C@H](C(=O)O)C3)c(C(F)(F)F)n2)nnn1C)C1CCCC1 (racemic) , what is its reported CC50 at 48 h?
Response: > 200 µM

* * *

Answer each item with its documented inhibition.
# Test system: A2058 (human melanoma cells)
# protocol_description: A2058 cell scratch assay (cell migration inhibition)
# Format: cell-based
# condition_notes: A2058 scratch area 0 h vs 24 h, 10 μM LPA, read-out: Cell migration inhibition rate

Request: Given the molecule CN(Cc1ccccc1)C(=O)OCc1c(-c2ccc(O[C@H]3CCC[C@H](C(=O)O)C3)o2)nnn1C (racemic) [Compound 12] , what is its reported inhibition?
Response: 0 to 30%

Request: Given the molecule CN(C(=O)NCc1c(-c2ccc(O[C@H]3CCC[C@H](C(=O)O)C3)c(C(F)(F)F)n2)nnn1C)C1CCCC1 (racemic) [Compound 26] , what is its reported inhibition?
Response: 30 to 50%

Request: Given the molecule CN(C(=O)NCc1c(-c2ccc(O[C@H]3CCC[C@H](C(=O)O)C3)cc2)nnn1C)C1CCCC1 (racemic) [Compound 30] , what is its reported inhibition?
Response: 30 to 50%

Request: Given the molecule Cn1nnc(-c2ccc(O[C@H]3CCC[C@H](C(=O)O)C3)cc2)c1NCc1ccccc1 (racemic) [Compound 24] , what is its reported inhibition?
Response: 0 to 30%

Request: Given the molecule CN(Cc1ccccc1)C(=O)NCc1c(-c2ccc(O[C@H]3CCC[C@H](C(=O)O)C3)cc2)nnn1C (racemic) [Compound 1] , what is its reported inhibition?
Response: 30 to 50%

Request: Given the molecule CN(Cc1ccccc1)C(=O)OCc1c(-c2ccc(Oc3cc(Cl)ccc3C(=O)O)cc2)nnn1C [Compound 7] , what is its reported inhibition?
Response: 0 to 30%

Request: Given the molecule CN(Cc1ccccc1)C(=O)CCc1c(-c2ccc(O[C@H]3CCC[C@H](C(=O)O)C3)cc2)nnn1C (racemic) [Compound 3] , what is its reported inhibition?
Response: 30 to 50%

Request: Given the molecule CN(C(=O)CCc1c(-c2ccc(O[C@H]3CCC[C@H](C(=O)O)C3)c(C(F)(F)F)n2)nnn1C)C1CCCC1 (racemic) [Compound 27-A] , what is its reported inhibition?
Response: 50 to 70%

Request: Given the molecule CN(C(=O)Cc1c(-c2ccc(O[C@H]3CCC[C@H](C(=O)O)C3)cc2)nnn1C)C1CCCC1 (racemic) [Compound 19] , what is its reported inhibition?
Response: 0 to 30%

Request: Given the molecule Cc1ncc(-c2c(-c3ccc(O[C@H]4CCC[C@H](C(=O)O)C4)cc3)nnn2C)o1 (racemic) [Compound 15] , what is its reported inhibition?
Response: 30 to 50%

Request: Given the molecule Cn1nnc(-c2ccc(O[C@H]3CCC[C@H](C(=O)O)C3)c(C(F)(F)F)n2)c1C1CN(C2CCCC2)C(=O)O1 (some centres unmarked) [Compound 29] , what is its reported inhibition?
Response: 0 to 30%

Request: Given the molecule Cn1nnc(-c2ccc(O[C@H]3CCC[C@H](C(=O)O)C3)cc2)c1COC1CCCC1 (racemic) [Compound 21] , what is its reported inhibition?
Response: 30 to 50%

Request: Given the molecule Cn1nnc(-c2ccc(O[C@H]3CCC[C@H](C(=O)O)C3)cc2)c1CNC(=O)C1CCCC1 (racemic) [Compound 20] , what is its reported inhibition?
Response: 30 to 50%

Request: Given the molecule CN(C(=O)OC1CCCC1)c1c(-c2ccc(O[C@H]3CCC[C@H](C(=O)O)C3)cc2)nnn1C (racemic) [Compound 31] , what is its reported inhibition?
Response: 30 to 50%

* * *

# system_tested: hLPAR1 (human lysophosphatidic acid receptor 1) (Homo sapiens, UniProt Q92633)
# Sequence (Q92633 whole entry): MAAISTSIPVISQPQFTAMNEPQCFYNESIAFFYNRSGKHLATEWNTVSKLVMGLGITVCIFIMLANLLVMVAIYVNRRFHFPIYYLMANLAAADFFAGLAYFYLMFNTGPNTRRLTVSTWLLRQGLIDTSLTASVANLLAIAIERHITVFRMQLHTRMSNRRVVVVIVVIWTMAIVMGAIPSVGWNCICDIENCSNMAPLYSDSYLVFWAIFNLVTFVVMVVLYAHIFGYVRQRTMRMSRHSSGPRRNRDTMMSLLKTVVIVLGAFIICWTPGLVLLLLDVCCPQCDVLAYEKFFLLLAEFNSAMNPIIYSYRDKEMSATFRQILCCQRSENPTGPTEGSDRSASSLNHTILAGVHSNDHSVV
# protocol_description: FLIPR intracellular calcium assay, hLPAR1 expressed in CHO-K1 cells
# condition_notes: antagonism of 1 μM LPA-induced calcium increase, CHO-K1 cells expressing hLPAR1; read-out: LPAR1 IC50
Answer each item with its documented IC50.

Request: Given the compound Cn1nnc(C#CO[C@H]2CCC[C@H](C(=O)O)C2)c1COc1nccc(C2CC2)n1 (racemic) , what is its reported IC50?
Response: ≤ 50 nM

Request: Given the compound Cn1nnc(-c2ccc(O[C@H]3CCC[C@H](C(=O)O)C3)cc2)c1CS(=O)(=O)NC1CCCC1 (racemic) , what is its reported IC50?
Response: 300 to 10000 nM

Request: Given the compound Cn1nnc(-c2ccc(O[C@H]3CCC[C@H](C(=O)O)C3)cc2)c1CNS(=O)(=O)c1ccccc1 (racemic) , what is its reported IC50?
Response: 50 to 300 nM

Request: Given the compound Cn1nnc(-c2ccc(O[C@H]3CCC[C@H](C(=O)O)C3)cc2)c1COC1CCCC1 (racemic) , what is its reported IC50?
Response: 50 to 300 nM
